target.entity: T1, human TMEM106B (human, UniProt Q9NUM4 2-274)
T1 construct: Full-length, on transiently transfected HEK293 cells, or natively expressed on HeLa, U251 and A549 cells; also called huTMEM106B; huTMEM
method: FACS HEK+huTMEM, 1.0 ug/ml
property: MFI
Form field (numeric): enter value without unit.

Inquiry: Would you mind telling me what MFI value was observed for anti-TMEM106B antibody TM-52 (antibody, V domains shown, mouse IgG from hybridoma) VH: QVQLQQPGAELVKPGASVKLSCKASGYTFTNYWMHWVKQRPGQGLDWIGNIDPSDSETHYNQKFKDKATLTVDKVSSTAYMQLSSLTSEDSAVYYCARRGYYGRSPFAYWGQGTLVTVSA VL: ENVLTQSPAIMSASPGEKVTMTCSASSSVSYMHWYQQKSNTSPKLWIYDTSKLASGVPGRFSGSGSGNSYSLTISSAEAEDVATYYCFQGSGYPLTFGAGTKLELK ?
Reply text: 8200

Inquiry: Would you mind telling me what MFI value was observed for anti-TMEM106B antibody TM-5 (antibody, V domains shown) VH: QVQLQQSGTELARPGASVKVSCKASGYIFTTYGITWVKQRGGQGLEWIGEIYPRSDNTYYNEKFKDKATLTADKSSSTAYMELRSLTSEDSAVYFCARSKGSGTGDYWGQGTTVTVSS VL: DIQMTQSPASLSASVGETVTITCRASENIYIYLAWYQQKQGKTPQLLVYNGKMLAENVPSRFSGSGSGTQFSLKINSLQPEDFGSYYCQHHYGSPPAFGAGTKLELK ?
Reply text: 64500

Inquiry: Would you mind telling me what MFI value was observed for anti-TMEM106B antibody TM-13 (antibody, V domains shown) VH: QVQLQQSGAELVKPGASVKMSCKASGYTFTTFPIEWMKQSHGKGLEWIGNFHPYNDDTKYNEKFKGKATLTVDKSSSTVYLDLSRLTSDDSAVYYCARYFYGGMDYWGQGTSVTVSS VL: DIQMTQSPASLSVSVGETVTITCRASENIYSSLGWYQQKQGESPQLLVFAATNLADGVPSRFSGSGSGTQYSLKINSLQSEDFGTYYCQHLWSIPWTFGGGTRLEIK ?
Reply text: 67100
